test-name: Single dose pharmacokinetics in male Swiss albino mice
Type: in vivo
conditions: mouse, in vivo, oral, 10 mg/kg
readout: Tmax (min)
Give bare numbers, in min.

* Cc1ccc(CNC2CCN(CCn3c(=O)cnc4ccc(Cl)nc43)CC2)cc1[N+](=O)[O-] | 60
* Cc1ccc(CNC2CCN(CCn3c(=O)cnc4ccc(F)cc43)CC2)cc1[N+](=O)[O-] | 30
* Cc1ccc(CNC2CCN(CCn3c(=O)cnc4ccc(F)cc43)CC2)cc1F | 60

Now for the compound whose Tmax we want.
Which Tmax reading was recorded for the compound COc1ccc2ncc(=S)n(CCN3CCC(NCc4ccc(C)c([N+](=O)[O-])c4)CC3)c2c1 ? 30

----------
test-name: Single dose pharmacokinetics in male Swiss albino mice
Format: in vivo
conditions: mouse, in vivo, intravenous, 5 mg/kg b.w., single dose
readout: AUC(0-inf) (ng·h/mL)
Numbers only, in ng·h/mL.

Using the record for COc1ccc2ncc(C#N)c(CCN3CCC(NCc4ccc(C)c([N+](=O)[O-])c4)CC3)c2c1 , report its AUC(0-inf). 368

----------
tested-target: ciprofloxacin resistant recombinant Gyrase protein (with mutation S83L) (Escherichia coli, UniProt P0AES4+P0AES6, S83L)
Construct: purchased Inspiralis
test-name: Gyrase supercoiling assay with ciprofloxacin resistant Gyrase (S83L)
Format: biochemical
conditions: read-out: Target specificity: % inhibition of supercoiling activity
Label True when inhibition at 0.1 µM is at or above 90%; otherwise label False.

* COc1ccc2ncc(=S)n(CCN3CCC(NCc4ccc(C)c([N+](=O)[O-])c4)CC3)c2c1 [VT-03-00127] | False
* Cc1ccc(CNC2CCN(CCn3c(=O)cnc4ccc(F)cc43)CC2)cc1F [VT-03-00122] | True
* Cc1ccc(CNC2CCN(CCn3c(=O)cnc4ccc(Br)cc43)CC2)cc1F [VT-03-00102] | True
* COc1ccc2ncc(=O)n(CCN3CCC(NCc4ccc(Cl)c([N+](=O)[O-])c4)CC3)c2c1 [VT-03-00128] | False
* O=c1cnc2ccc(F)cc2n1CCN1CCC(NCc2ccc(Cl)c([N+](=O)[O-])c2)CC1 [VT-03-00116] | True
* Cc1ccc(CNC2CCN(CCn3c(=O)cnc4ccc(C#N)cc43)CC2)cc1F [VT-03-00103] | False

Below: the item to evaluate.
Could you verify whether the entry COc1ccc2ncc(=O)n(CCN3CCC(NCc4ccc(C)c(F)c4)CC3)c2n1 [VT-03-00101] shows inhibition at 0.1 µM of no less than 90%? True

----------
test-name: Single dose pharmacokinetics in male Swiss albino mice
Assay type: in vivo
conditions: mouse, in vivo, oral, 10 mg/kg b.w., single dose
readout: AUC(0-inf) (ng·h/mL)
One number for each entry, in ng·h/mL.

Which AUC(0-inf) reading was recorded for the compound COc1ccc2ncc(C#N)c(CCN3CCC(NCc4ccc(C)c([N+](=O)[O-])c4)CC3)c2c1 ? 104

----------
test-name: Single dose pharmacokinetics in male Swiss albino mice
Format: in vivo
conditions: mouse, in vivo, oral, 10 mg/kg
readout: AUC(0-t) (ng·h/mL)
One number for each entry, in ng·h/mL.

The following compounds have reported results that may help.
- Cc1ccc(CNC2CCN(CCn3c(=O)cnc4ccc(F)cc43)CC2)cc1F: 37.3
- Cc1ccc(CNC2CCN(CCn3c(=O)cnc4ccc(Cl)nc43)CC2)cc1[N+](=O)[O-]: 9.3
- Cc1ccc(CNC2CCN(CCn3c(=O)cnc4ccc(F)cc43)CC2)cc1[N+](=O)[O-]: 9.3

Entry COc1ccc2ncc(=S)n(CCN3CCC(NCc4ccc(C)c([N+](=O)[O-])c4)CC3)c2c1 : reported AUC(0-t) = ? 198

Every entry's value here was drawn from patent US20170197935A1.
